assay: Effect of pH on aqueous solubility; details: 21 °C, pH 6, aqueous buffer, thermodynamic from solid
recorded_endpoint: solubility at 30 min (µg/mL)
Record the value in µg/mL, omitting the unit from your answer.

# get_value(readout='solubility at 30 min', item= NCCCCCC(O)(P(=O)(O)O)P(=O)(O)O [Compound 4, reference compound] )
3390

* * *

experiment: Thermal analysis (TG/DTA and TGA 7); format: physicochemical; settings: TG/DTA, higher crucible; air, 5 °C/min
recorded_endpoint: Td (°C)
The answer is to be given in °C; state only the numeric part.

NCCC(O)(P(=O)(O)O)P(=O)(O)O :: 149
NCCCCCCCCCCC(O)(P(=O)(O)O)P(=O)(O)O :: 199
NCCCCCC(O)(P(=O)(O)O)P(=O)(O)O [Compound 4, reference compound] :: 208

Item under review: NCCCC(O)(P(=O)(O)O)P(=O)(O)O [Compound 2, reference compound] . Reported Td?
222

I have this compound here, NCCCCCCCCCCCCCCCC(O)(P(=O)(O)O)P(=O)(O)O , and I need its recorded Td.
178

* * *

assay: Effect of pH on aqueous solubility; conditions: water, pH adjusted with NaOH or HCl, 21 °C, pH 4, aqueous buffer, thermodynamic from solid
Reported values of solubility at 30 min for individual entries
# output: bare number, implied unit µg/mL

Answered examples (2):
NCCCCCCCCC(O)(P(=O)(O)O)P(=O)(O)O :: 1080
NCCCCCCCCCCCC(O)(P(=O)(O)O)P(=O)(O)O :: 140

Could you now look at the following compound, please?
Any idea what solubility at 30 min was measured for NCCCCCCCCCCC(O)(P(=O)(O)O)P(=O)(O)O ?
180

* * *

assay: Effect of pH on aqueous solubility; details: 21 °C, pH 5, aqueous buffer, thermodynamic from solid
recorded_endpoint: solubility at 30 min (µg/mL)
# number only, unit µg/mL dropped from output

What measured solubility at 30 min goes with NCCCCCC(O)(P(=O)(O)O)P(=O)(O)O [Compound 4, reference compound] ?
3220

* * *

Below, each entry is listed alongside its reported logβx ± 3σ, x = 1 (H3L−).
assay: Protonation constants by (traditional) potentiometric titration (TPT), SUPERQUAD; conditions: overall protonation, zero level H2L2−, 0.1 M NaNO3, 25 °C
Please state the value as a number alone, without comment.

NCCCC(O)(P(=O)(O)O)P(=O)(O)O [Compound 2, reference compound] :: 6.26
NCCCCC(O)(P(=O)(O)O)P(=O)(O)O [Compound 3] :: 6.44

Consider the compound shown here: NCCC(O)(P(=O)(O)O)P(=O)(O)O [Compound 1] What is its recorded logβx ± 3σ, x = 1 (H3L−)?
5.90

Need logβx ± 3σ, x = 1 (H3L−) of NCCCCCC(O)(P(=O)(O)O)P(=O)(O)O [Compound 4, reference compound] , thanks.
6.62

I have this compound here, NCCCCCCCC(O)(P(=O)(O)O)P(=O)(O)O [Compound 5] , and I need its recorded logβx ± 3σ, x = 1 (H3L−).
6.75

* * *

// Temp. range of 1st cleavage lookup, one value per entry
experiment: Thermal analysis (TG/DTA and TGA 7); type: physicochemical; conditions: TGA 7, shallow crucible; lower limit taken at 0.5 wt-%

# lookup: Temp. range of 1st cleavage of NCCCCC(O)(P(=O)(O)O)P(=O)(O)O
195–265 °C

I have this molecule here, NCCCCCCCCCC(O)(P(=O)(O)O)P(=O)(O)O , and I need its recorded Temp. range of 1st cleavage.
161–227 °C

Value lookup for Temp. range of 1st cleavage; key = NCCCCCCCCCCC(O)(P(=O)(O)O)P(=O)(O)O
39–149 °C

Quick check: Temp. range of 1st cleavage of NCCCCCCCCCCCCCCCC(O)(P(=O)(O)O)P(=O)(O)O ?
146–245 °C

Can you look up the measured Temp. range of 1st cleavage of NCCC(O)(P(=O)(O)O)P(=O)(O)O for me?
102–203 °C

Suppose we examine the molecule NCCCC(O)(P(=O)(O)O)P(=O)(O)O [Compound 2, reference compound] ; what Temp. range of 1st cleavage value has been reported?
166–253 °C

I am curious: what Temp. range of 1st cleavage value has been reported for NCCCCCCCC(O)(P(=O)(O)O)P(=O)(O)O ?
175–222 °C

Please look up its Temp. range of 1st cleavage: NCCCCCC(O)(P(=O)(O)O)P(=O)(O)O [Compound 4, reference compound]
183–251 °C

Requested read-out: Temp. range of 1st cleavage. Entry: NCCCCCCCCCCCC(O)(P(=O)(O)O)P(=O)(O)O
155–221 °C

// returns reported Temp. range of 1st cleavage for input NCCCCCCCCC(O)(P(=O)(O)O)P(=O)(O)O
33–173 °C
